This listing pairs molecules with measured Potency.
Experiment: qHTS Assay for Modulators of miRNAs and/or Inhibitors of miR-21; note: potency is the fitted concentration of half-maximal effect; nearly all actives have a fitted effect of over 55% in size
Conditions: HeLa miR-21-FLuc reporter, luciferase luminescence, 48 h; actives lower the signal
Out of some 340,000 compounds screened, about 3,300 (0.97%) were called active. About 9% were inconclusive and are not listed. The list shows a part of the results.

>  <molecule>
COc1ccc2cc(-c3ccn[nH]3)ccc2c1

>  <Potency>
0.927 µM (active)

$$$$
>  <molecule>
O=C(/C=C/c1ccc(-c2cccc([N+](=O)[O-])c2)o1)N1CCOCC1

>  <Potency>
7.36 µM (active)

$$$$
>  <molecule>
Cc1sc(NC(=O)c2ccccc2F)c(CN2CCCCC2C)c1C (configuration not stated)

>  <Potency>
2.07 µM (active)

$$$$
>  <molecule>
Cc1ccc(-n2c(C)c(C)c3c(NCCO)ncnc32)cc1

>  <Potency>
13.1 µM (active)

$$$$
>  <molecule>
CCc1ccccc1NC(=O)C(=O)c1cc(C)n(-c2ccccc2F)c1C

>  <Potency>
16.5 µM (active)

$$$$

Input: Give its Potency value. Item: "COc1cc(SC)ccc1C(=O)NCC1CCCCC1"
Output: 10.4 µM (active)

Input: # query: Potency of entry "N/C(=N\OC(=O)c1ccc2ccccc2c1)c1ccncc1"
Output: 0.585 µM (active)

Input: May I ask what Potency has been recorded for "Cc1c(C)n(CCc2ccccc2)c2ncnc(NCCO)c12" ?
Output: 4.14 µM (active)

Input: Can you look up the measured Potency of "Cc1ccc(-n2c(C)c(C)c3c(NCCCO)ncnc32)cc1" for me?
Output: 7.36 µM (active)

Input: Find the recorded Potency belonging to "O=C(Nc1ccc2c(c1)OCCO2)c1cnc2n(c1=O)CCS2" and report it.
Output: 1.47 µM (active)

Input: Fill in the blank: the reported Potency of "COc1cc(SC)ccc1C(=O)NCCOc1ccccc1Cl" is ____.
Output: 2.93 µM (active)

Input: What Potency value was documented for this molecule, "Cc1csc2ncc(C(=O)Nc3ccc4c(c3)OCCO4)c(=O)n12" ?
Output: 0.208 µM (active)

====

Assay: qHTS Assay for Modulators of miRNAs and/or Inhibitors of miR-21; note: potency is the fitted concentration of half-maximal effect; nearly all actives have a fitted effect of over 55% in size
Details: HeLa miR-21-FLuc reporter, luciferase luminescence, 48 h; actives lower the signal
The whole screen tested about 340,000 compounds, of which about 3,300 (0.97%) were called active. Inconclusive results (about 9%) are left out. The list shows a part of the results.
Reported values of Potency for individual entries

Known Potency results, listed for orientation:
>  <compound>
Cc1ccc(-c2nnc(CCC(=O)NCC3C4CC5CC(C4)CC3C5)o2)s1 (configuration not stated)

>  <measured-result>
14.7 µM (active)

$$$$
>  <compound>
CN(C)/C=C/C(=O)c1cnc(-c2cccc(Cl)c2)s1

>  <measured-result>
18.5 µM (active)

$$$$
>  <compound>
CCC(CC)c1nnc(NC(=O)c2ccc3c(c2)OCO3)s1

>  <measured-result>
7.36 µM (active)

$$$$
>  <compound>
Clc1ccc(-c2cnc3ccccc3n2)cc1

>  <measured-result>
4.14 µM (active)

$$$$
>  <compound>
CCn1nc(C)c(/C=N/NC(=O)Cc2ccc(Cl)cc2)c1C

>  <measured-result>
11.7 µM (active)

$$$$
>  <compound>
CC(C)(C)CC(=O)Nc1nnc(-c2cccs2)s1

>  <measured-result>
1.31 µM (active)

$$$$
>  <compound>
Cc1ccc2cc(CCNC(=O)c3ccco3)c(=O)[nH]c2c1C

>  <measured-result>
0.826 µM (active)

$$$$
>  <compound>
CC(C)(C)c1nnc(NC(=O)c2ccc3c(c2)OCO3)s1

>  <measured-result>
1.47 µM (active)

$$$$

Input: Entry "N#Cc1ccccc1OCc1nnc(-c2ccccc2Br)o1" : reported Potency = ?
Output: 1.31 µM (active)

Input: Entry under review: "Cc1c(C(=O)N2C[C@@H](C)O[C@@H](C)C2)oc2c(F)cccc12" . Reported Potency?
Output: 13.1 µM (active)

Input: Please report the recorded Potency for "CCCCOc1ccc(-c2cnc3ccccc3n2)cc1" .
Output: 0.656 µM (active)

Input: Using the record for Cc1c(C(=O)NC2CCOC2)oc2c(F)cccc12 (configuration not stated) , report its Potency.
Output: 5.85 µM (active)

These entries and their values trace back to PubChem BioAssay AID2289.
